Source: patent US7803793B2

Parameter: IC50. Scope: all listed entries.
biological target: MMP-2 (Homo sapiens); construct: Human MMP-2 full length (aa 1-660); assay: MMP enzymatic assay (Trupoint peptide), MMP-2; type: biochemical
Provide the reading as a plain figure in nM.

The following molecules have reported results that may help.
{"MOLECULE": "O=C1[C@H](NS(=O)(=O)c2ccc(Oc3ccc(C(F)(F)F)cc3)cc2)CCCN1O", "REPORTED RESULT": 46.7}
{"MOLECULE": "CN(c1cccn(O)c1=O)S(=O)(=O)c1ccc(Oc2ccc(Cl)cc2)cc1", "REPORTED RESULT": 6.9}

Now examine the next entry.
API: value(readout= IC50, system= MMP-2 (Homo sapiens), query= O=C1[C@H](NS(=O)(=O)c2ccc(Oc3ccncc3)cc2)CC=CCN1O )
2.67

====

molecular target: MMP-2 (Homo sapiens, UniProt P08253); construct: Human MMP-2 full length (aa 1-660); assay: MMP enzymatic assay (Trupoint peptide), MMP-2; assay type: biochemical
Sequence (P08253 30-660): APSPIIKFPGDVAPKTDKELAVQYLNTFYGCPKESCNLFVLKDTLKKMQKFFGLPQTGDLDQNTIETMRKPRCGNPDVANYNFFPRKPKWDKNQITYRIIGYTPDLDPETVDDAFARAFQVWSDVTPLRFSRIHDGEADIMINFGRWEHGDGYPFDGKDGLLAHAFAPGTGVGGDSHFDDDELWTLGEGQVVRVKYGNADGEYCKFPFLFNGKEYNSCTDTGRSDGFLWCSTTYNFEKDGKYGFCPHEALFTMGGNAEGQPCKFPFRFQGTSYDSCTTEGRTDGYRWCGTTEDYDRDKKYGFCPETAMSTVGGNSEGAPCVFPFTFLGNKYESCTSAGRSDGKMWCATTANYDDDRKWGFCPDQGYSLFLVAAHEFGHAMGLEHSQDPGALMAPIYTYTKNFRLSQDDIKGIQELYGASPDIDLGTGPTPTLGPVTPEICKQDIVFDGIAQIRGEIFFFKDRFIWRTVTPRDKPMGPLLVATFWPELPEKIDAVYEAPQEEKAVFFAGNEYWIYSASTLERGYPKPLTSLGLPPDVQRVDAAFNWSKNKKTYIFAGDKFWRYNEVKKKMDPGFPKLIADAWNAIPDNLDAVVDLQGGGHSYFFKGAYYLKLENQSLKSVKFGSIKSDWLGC
Parameter: pIC50. Scope: all listed entries.
For clarity, pIC50 is expressed as the negative log10 of concentration in mol/L.

{"MOLECULE": "Cc1ccc(Oc2ccc(N(Cc3cc(-c4ccccc4)cn(O)c3=O)S(C)(=O)=O)cc2)cc1", "REPORTED RESULT": 6.04}
{"MOLECULE": "O=C1[C@H](NS(=O)(=O)c2ccc(Br)s2)CC=CCN1O", "REPORTED RESULT": 7.37}
{"MOLECULE": "CS(=O)(=O)N(Cc1cccn(O)c1=O)c1ccc(Oc2ccc(OC(F)(F)F)cc2)cc1", "REPORTED RESULT": 6.33}

Now examine the next entry.
Which pIC50 value belongs to O=C1[C@H](CS(=O)(=O)c2ccc(Oc3ccccc3)cc2)NCCCN1O ?
7.33

====

biological target: MMP-2 (Homo sapiens); construct: Human MMP-2 full length (aa 1-660); assay: MMP enzymatic assay (Trupoint peptide), MMP-2; format: biochemical
pIC50: −log10 of the molar value.
pIC50 below 8 gives FALSE; pIC50 at or above it gives TRUE.

Example entries and their recorded answers appear below.
{"MOLECULE": "Cc1ccc(Oc2ccc(N(Cc3c(C)ccn(O)c3=O)S(C)(=O)=O)cc2)cc1", "STUDY TARGET": "MMP-2 (Homo sapiens)", "LABEL VALUE": "FALSE"}
{"MOLECULE": "O=C1[C@H](NS(=O)(=O)c2ccc(Oc3ccc(C(F)(F)F)cc3)cc2)CC=CCN1O", "STUDY TARGET": "MMP-2 (Homo sapiens)", "LABEL VALUE": "TRUE"}
{"MOLECULE": "O=C1[C@H](NS(=O)(=O)c2ccc(Oc3ccc(Cl)cc3)cc2)CC=C(CN2CCOCC2)CN1O", "STUDY TARGET": "MMP-2 (Homo sapiens)", "LABEL VALUE": "TRUE"}
{"MOLECULE": "CC(C)CN(c1cccn(O)c1=O)S(=O)(=O)c1ccc(Oc2ccccc2)cc1", "STUDY TARGET": "MMP-2 (Homo sapiens)", "LABEL VALUE": "FALSE"}
{"MOLECULE": "Cc1ccc2[nH]c(-c3ccc(S(=O)(=O)C4CCCCN(O)C4=O)cc3)nc2c1 (stereo not shown)", "STUDY TARGET": "MMP-2 (Homo sapiens)", "LABEL VALUE": "FALSE"}
{"MOLECULE": "CS(=O)(=O)N(Cc1cccn(O)c1=O)c1ccc(Oc2ccc(C(F)(F)F)cc2)cc1", "STUDY TARGET": "MMP-2 (Homo sapiens)", "LABEL VALUE": "FALSE"}
{"MOLECULE": "O=C1[C@H](NS(=O)(=O)c2ccc(Oc3ncc(C(F)(F)F)cc3Cl)cc2)CC=CCN1O", "STUDY TARGET": "MMP-2 (Homo sapiens)", "LABEL VALUE": "FALSE"}
{"MOLECULE": "COc1ccc(Oc2ccc(N(Cc3cccn(O)c3=O)S(C)(=O)=O)cc2)cc1", "STUDY TARGET": "MMP-2 (Homo sapiens)", "LABEL VALUE": "FALSE"}
{"MOLECULE": "O=C1C(S(=O)(=O)c2ccc(Br)cc2)CCCCN1O (stereo not shown)", "STUDY TARGET": "MMP-2 (Homo sapiens)", "LABEL VALUE": "FALSE"}
{"MOLECULE": "O=C1[C@H](NS(=O)(=O)c2ccc(-c3ccc(Cl)cc3)cc2)CC=CCN1O", "STUDY TARGET": "MMP-2 (Homo sapiens)", "LABEL VALUE": "FALSE"}

Does pIC50 meet or surpass 8 for O=C1C(S(=O)(=O)c2ccc(Oc3ccc(OC(F)(F)F)cc3)cc2)CCCCN1O (stereo not shown) ?
FALSE

Does pIC50 meet or surpass 8 for O=c1c(O)cccn1CS(=O)(=O)c1ccc(Br)cc1 ?
FALSE

Does pIC50 meet or surpass 8 for Cc1ccc(C#Cc2ccc(N(Cc3cccn(O)c3=S)S(C)(=O)=O)cc2)cc1 ?
FALSE

Does pIC50 meet or surpass 8 for Cc1ccc(Oc2ccc(N(Cc3cccn(O)c3=S)S(C)(=O)=O)cc2)cc1 ?
FALSE

Does pIC50 meet or surpass 8 for Cc1ccc(-c2ccc(S(=O)(=O)N[C@@H]3CC=CCN(O)C3=O)s2)cc1 ?
TRUE

Does pIC50 meet or surpass 8 for Cc1ccc(C#Cc2ccc(S(=O)(=O)N(CCN3CCOCC3)C3CC=CCN(O)C3=O)s2)cc1 (stereo not shown) ?
TRUE

Does pIC50 meet or surpass 8 for Cc1ccc(Oc2ccc(S(=O)(=O)Nc3cccn(O)c3=O)cc2)cc1 ?
FALSE

Does pIC50 meet or surpass 8 for O=C1[C@H](N(CCN2CCOCC2)S(=O)(=O)c2ccc(Br)s2)CC=CCN1O ?
FALSE

Does pIC50 meet or surpass 8 for CN([C@@H]1CC=CCN(O)C1=O)S(=O)(=O)c1ccc(Oc2ccc(Cl)cc2)cc1 ?
TRUE

Does pIC50 meet or surpass 8 for CN1CCCN(O)C(=O)[C@@H]1CN(c1ccc(Oc2ccc(C(F)(F)F)cc2)cc1)S(C)(=O)=O ?
FALSE

Does pIC50 meet or surpass 8 for COc1ccc(-c2ccc(S(=O)(=O)N[C@@H]3CC=CCN(O)C3=O)s2)cc1 ?
TRUE

Does pIC50 meet or surpass 8 for CCCCc1ccc(N(Cc2cccn(O)c2=O)S(C)(=O)=O)cc1 ?
FALSE

Does pIC50 meet or surpass 8 for Cc1ccc(Oc2ccc(N(C(C)c3cccn(O)c3=O)S(C)(=O)=O)cc2)cc1 (stereo not shown) ?
FALSE

Does pIC50 meet or surpass 8 for CS(=O)(=O)N(Cc1cccn(O)c1=O)c1ccc(Oc2ccc(Cl)cc2)cc1 ?
FALSE

Does pIC50 meet or surpass 8 for O=C1[C@H](N(CCN2CCOCC2)S(=O)(=O)c2ccc(Oc3ccc(Cl)cc3)cc2)CC=CCN1O ?
TRUE

Does pIC50 meet or surpass 8 for O=C1C(NS(=O)(=O)c2ccc(Oc3ccc(Cl)cc3)cc2)CCCCN1O (stereo not shown) ?
TRUE
